# SYSTEM: human recombinant HDAC6 (Homo sapiens, UniProt Q9UBN7)
# Sequence (Q9UBN7 whole entry): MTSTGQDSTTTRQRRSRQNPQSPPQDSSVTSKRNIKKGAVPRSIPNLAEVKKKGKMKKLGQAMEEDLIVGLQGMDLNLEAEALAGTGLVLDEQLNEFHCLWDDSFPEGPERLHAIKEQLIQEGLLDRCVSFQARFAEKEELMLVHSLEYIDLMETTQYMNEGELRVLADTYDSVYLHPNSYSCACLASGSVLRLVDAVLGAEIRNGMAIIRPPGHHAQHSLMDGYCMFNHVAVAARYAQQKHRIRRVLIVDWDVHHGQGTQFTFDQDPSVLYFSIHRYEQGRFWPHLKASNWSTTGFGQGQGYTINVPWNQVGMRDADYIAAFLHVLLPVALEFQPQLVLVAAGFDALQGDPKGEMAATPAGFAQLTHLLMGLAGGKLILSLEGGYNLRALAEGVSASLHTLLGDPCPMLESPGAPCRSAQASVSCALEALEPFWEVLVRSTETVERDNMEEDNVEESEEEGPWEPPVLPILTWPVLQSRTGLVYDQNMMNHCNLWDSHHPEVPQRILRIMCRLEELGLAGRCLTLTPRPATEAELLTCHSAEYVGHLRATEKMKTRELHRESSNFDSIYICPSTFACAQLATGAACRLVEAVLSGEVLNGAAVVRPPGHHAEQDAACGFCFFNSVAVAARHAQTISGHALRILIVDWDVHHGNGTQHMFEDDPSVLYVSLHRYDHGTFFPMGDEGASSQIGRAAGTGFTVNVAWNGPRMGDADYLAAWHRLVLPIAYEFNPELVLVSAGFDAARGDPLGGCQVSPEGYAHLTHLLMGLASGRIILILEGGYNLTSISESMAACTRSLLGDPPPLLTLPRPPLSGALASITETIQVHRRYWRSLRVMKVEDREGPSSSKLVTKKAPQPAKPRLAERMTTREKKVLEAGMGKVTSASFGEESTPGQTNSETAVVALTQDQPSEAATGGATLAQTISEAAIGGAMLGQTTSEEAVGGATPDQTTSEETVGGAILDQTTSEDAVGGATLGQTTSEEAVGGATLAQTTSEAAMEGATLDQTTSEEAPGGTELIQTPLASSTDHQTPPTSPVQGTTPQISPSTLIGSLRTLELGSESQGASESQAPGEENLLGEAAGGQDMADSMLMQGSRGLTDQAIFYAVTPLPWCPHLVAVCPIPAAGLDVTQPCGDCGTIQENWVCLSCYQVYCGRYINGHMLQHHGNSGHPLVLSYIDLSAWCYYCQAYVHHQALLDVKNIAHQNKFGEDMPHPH
# ASSAY_OVERVIEW: In vitro HDAC enzyme activity inhibition assay, HDAC6 (HDAC Fluorimetric Drug Discovery Kit)
# MEASUREMENT_SETUP: human recombinant HDAC6, same protocol as the HDAC1 test
MEASURED_ATTRIBUTE: IC50 (nM)
Dear colleague, please return just the value in nM, with no unit written.

// worked examples, IC50 included
CN(C)C(=O)N1CC(C(=O)N(Cc2cn3ccc(-c4nnc(C(F)F)o4)cc3n2)c2cccc(F)c2)C1 ... 144
CCC(=O)N1CCC(C(=O)N(Cc2cn3ccc(-c4nnc(C(F)F)o4)cc3n2)c2cccc(F)c2)CC1 ... 396
O=C(N1CCN(c2ccccn2)CC1)N(Cc1cn2ccc(-c3nnc(C(F)F)o3)cc2n1)c1ccccc1 ... 247

Entry Fc1ccc(Cc2cn3ccc(-c4nnc(C(F)F)o4)cc3n2)cc1 ; IC50 = 330

Input CCN1CCC(C(=O)N(Cc2cn3ccc(-c4nnc(C(F)F)o4)cc3n2)c2ccccc2)CC1 . Output IC50: 354

According to the records, this compound CN(C)C(=O)N1CCN(C(=O)N(Cc2cn3ccc(-c4nnc(C(F)F)o4)cc3n2)c2ccccc2)CC1 displays IC50 of 125

Form: compound = CC(=O)N1CC(C(=O)N(Cc2cn3ccc(-c4nnc(C(F)F)o4)cc3n2)c2cccc(F)c2)C1 ; IC50 = 242

Memo: O=C(C1CCC1)N1CCC(C(=O)N(Cc2cn3ccc(-c4nnc(C(F)F)o4)cc3n2)c2cccc(F)c2)CC1 , reported IC50: 214

Entry under test: CC(CO)N1CC(C(=O)N(Cc2cn3ccc(-c4nnc(C(F)F)o4)cc3n2)c2cccc(F)c2)C1 (stereo not drawn) . Its IC50 was 134

// recorded IC50 for O=C(C1CN(C2CCC2)C1)N(Cc1cn2ccc(-c3nnc(C(F)F)o3)cc2n1)c1cccc(F)c1 : 111

In plain terms, CC(=O)N1CC(C(=O)N(Cc2cn3ccc(-c4nnc(C(F)F)o4)cc3n2)c2ccccc2)C1 has a documented IC50 of 447

Short answer for O=C(N1CCN(C2CCC2)CC1)N(Cc1cn2ccc(-c3nnc(C(F)F)o3)cc2n1)c1cccc(F)c1 : IC50 was 233

====

# SYSTEM: human recombinant HDAC6 (Homo sapiens, UniProt Q9UBN7)
# ASSAY_OVERVIEW: In vitro HDAC enzyme activity inhibition assay, HDAC6 (HDAC Fluorimetric Drug Discovery Kit)
# MEASUREMENT_SETUP: human recombinant HDAC6, same protocol as the HDAC1 test
I'd appreciate it if you marked entries yes when IC50 is lower than 200 nM and no when it is not.

Take a look at these entries with their results.
CC(C)N1CCN(C(=O)N(Cc2cn3ccc(-c4nnc(C(F)F)o4)cc3n2)c2cccc(F)c2)CC1 ... no
CC(=O)c1cccc(OCc2cn3ccc(-c4nnc(C(F)F)o4)cc3n2)c1 ... no
O=C(C1CN(C(=O)C(F)(F)F)C1)N(Cc1cn2ccc(-c3nnc(C(F)F)o3)cc2n1)c1cccc(F)c1 ... yes
Fc1cccc(Cc2cn3ccc(-c4nnc(C(F)F)o4)cc3n2)c1 ... yes
CS(=O)(=O)N1CC(C(=O)N(Cc2cn3ccc(-c4nnc(C(F)F)o4)cc3n2)c2cccc(F)c2)C1 ... yes

// next entry
Inquiry: is_below(IC50, 200 nM) for CCN1CCN(C(=O)N(Cc2cn3ccc(-c4nnc(C(F)F)o4)cc3n2)c2ccccc2)CC1 ?
Reply text: yes
